Cited source: paper PMC5962679

- ASSAYED SYSTEM: HLA-DRB1*1302 (Homo sapiens, UniProt P01903+P01911, A100E/A169T/K41T/L162R/M171V/P40S/Q125H/Q178H/Q39Y/Q99D/R42S/S66N/T262R/V115G/W38E/Y61H)
- Sequence (P01903 26-254 limits assumed, other chains not shown): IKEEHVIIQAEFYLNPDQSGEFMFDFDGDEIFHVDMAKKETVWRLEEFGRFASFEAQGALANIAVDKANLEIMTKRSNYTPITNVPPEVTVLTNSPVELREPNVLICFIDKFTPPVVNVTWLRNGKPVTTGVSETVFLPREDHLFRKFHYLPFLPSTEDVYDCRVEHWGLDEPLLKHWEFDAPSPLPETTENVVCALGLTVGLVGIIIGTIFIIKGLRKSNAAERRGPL
- METHOD: biochemical
- Format: binding
- STATED CONDITIONS: 24 h, read-out: Binding percentage
Ends that are not written are not given here.
Decision: inhibition at 250 µM compared against 60%; not below it gives 1, below it gives -1.

Illustrative cases are given below, each with its answer.
SEQUENCE ENTRY	CLASS LABEL
KLKYIFKRRKTMKKK [compound 39151]	-1
LKPFYSLETMLMANS [compound 39147]	1
NYEIYIASSSNIYLM [compound 39046]	1
QTAFRKFFKKIISLG [compound 39150]	-1

Request: Answer whether inhibition at 250 µM of TPIIVKYDNTHAKNR [compound 39048] is greater than or equal to 60%.
Result: -1

Request: Answer whether inhibition at 250 µM of DKSFISEANSFRNEE [compound 39149] is greater than or equal to 60%.
Result: -1

Request: Answer whether inhibition at 250 µM of NVRKFFLNDVSSIRH [compound 39148] is greater than or equal to 60%.
Result: 1
